property.name: boiling point (°C)
Answer in °C, number only, no unit symbol.

Below are worked cases with known answers.
CCCCON=O
78
CCCCCC(C)(C)C
133
CCCCCCC(C)CC (stereo not drawn)
168
COc1ccc(Cl)cc1Cl
232
CCCCCCCCCCCCCCCCCCCCCCCCCCCCCCCCCCCCCC
512
OCc1cccs1
207
CCOC(OCC)c1ccco1
192
N#CCCCCl
192
C=CCc1cccc2ccccc12
266
CCOc1ccc(Cl)cc1Cl
237

Q: Kindly indicate its recorded boiling point. Item: CCCOCCC
A: 90

Q: Identify the reported boiling point for the following entry. CCCCCCCCCCC(=O)O
A: 280

Q: Read the entry Cc1c[nH]c(C)c1 and write its reported boiling point.
A: 168

Q: Supply recorded boiling point for OC(O)C(Cl)(Cl)Cl here.
A: 98

Q: Identify measured boiling point associated with O=C1CCC(=O)N1c1ccccc1
A: 400

Q: Give me measured boiling point, please, for this compound: Cc1cc(Cl)n(C)n1
A: 158

Q: Read off the recorded boiling point for COc1ccc(Cl)cc1
A: 198

All values here come from the OPERA property sets (Mansouri et al. 2018).
